tested on: Candida albicans; test: Antifungal activity against Candida albicans MTCC 2827 at 0.5 mg/ml after 72 hrs by well plate method; format: functional; details: MTCC 2827, 72 h, read-out: DIZ
// reported zone of inhibition at 500 µg/mL for each item listed
Give a bare numeral; the unit mm is implied.

Candida albicans zone of inhibition at 500 µg/mL of COc1ccc(NC(=O)N2N=C(c3cc4ccccc4o3)CC2c2ccc(O)c(OC)c2)cc1 (stereo not drawn) is 3

Candida albicans zone of inhibition at 500 µg/mL of COc1cc(C2CC(c3cc4ccccc4o3)=NN2C(=O)Cl)ccc1O (stereo not drawn) is 3

Candida albicans zone of inhibition at 500 µg/mL of COc1cc(C2CC(c3cc4ccccc4o3)=NN2C(=O)Nc2ccccc2O)ccc1O (stereo not drawn) is 3
